From: patent US10890591B2

Answer each item with its documented Subject D, Urine Results.
# experiment notes: clinical
# test context: human, in vivo, 3 day
Record the value in ng/m, omitting the unit from your answer.

Query: Item CN(C)CCOC(c1ccccc1)c1ccccc1 [Diphenhydramine] has what recorded Subject D, Urine Results?
Reply: 0

Query: Item O=C1O[C@H]([C@@H](O)CO)C(O)=C1O has what recorded Subject D, Urine Results?
Reply: 3626

Query: Item Cc1cc2nc3c(=O)[nH]c(=O)nc-3n(C[C@H](O)[C@H](O)[C@H](O)CO)c2cc1C has what recorded Subject D, Urine Results?
Reply: 5190

Query: Item CNC(=C[N+](=O)[O-])NCCSCc1ccc(CN(C)C)o1 has what recorded Subject D, Urine Results?
Reply: 300

Query: Item NC(N)=Nc1nc(CSCCC(N)=NS(N)(=O)=O)cs1 has what recorded Subject D, Urine Results?
Reply: 0

---

Answer each item with its documented concentration at 8 day.
# experiment notes: Multiple Marker Experiment 2: urine samples, simulated non-adherence (one marker dose skipped per subject), LC-MS/MS
# test context: human, in vivo, Subject C, Urine Results, Day 8 sample; Experiment #2, subject C skipped Loperamide on day 2; other markers dosed once
Record the value in ng/mL, omitting the unit from your answer.

Query: Item COc1ccc2c(c1)[C@]13CCCC[C@@H]1[C@H](C2)N(C)CC3 [DXM, Dextromethorphan] has what recorded concentration at 8 day?
Reply: 0.15

Query: Item CN(C)C(=O)C(CCN1CCC(O)(c2ccc(Cl)cc2)CC1)(c1ccccc1)c1ccccc1 [Loperamide] has what recorded concentration at 8 day?
Reply: 0

---

# experiment notes: clinical
# test context: human, in vivo, 1 day
readout type: Subject C, Urine Results

Query: Item O=C1O[C@H]([C@@H](O)CO)C(O)=C1O [Ascorbic Acid] has what recorded Subject C, Urine Results?
Reply: 1290 ng/m

Query: Item Cc1cc2nc3c(=O)[nH]c(=O)nc-3n(C[C@H](O)[C@H](O)[C@H](O)CO)c2cc1C [Riboflavin] has what recorded Subject C, Urine Results?
Reply: 1210 ng/m

Query: Item CNC(=C[N+](=O)[O-])NCCSCc1ccc(CN(C)C)o1 [Ranitidine] has what recorded Subject C, Urine Results?
Reply: 0 ng/m

Query: Item CN(C)CCOC(c1ccccc1)c1ccccc1 [Diphenhydramine] has what recorded Subject C, Urine Results?
Reply: 0 ng/m

Query: Item NC(N)=Nc1nc(CSCCC(N)=NS(N)(=O)=O)cs1 [Famotidine] has what recorded Subject C, Urine Results?
Reply: 0 ng/m

---

# experiment notes: clinical
# test context: human, in vivo, Subject B, Urine Results
readout type: concentration at 2 day (ng/mL)
Record the value in ng/mL, omitting the unit from your answer.

Query: Item NC(N)=Nc1nc(CSCCC(N)=NS(N)(=O)=O)cs1 has what recorded concentration at 2 day?
Reply: 0

Query: Item CN(C)CCOC(c1ccccc1)c1ccccc1 [Diphenhydramine] has what recorded concentration at 2 day?
Reply: 0

---

Answer each item with its documented concentration at 7 day.
# experiment notes: Multiple Marker Experiment 1: saliva samples, marker concentration by LC-MS/MS;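 note: mean across four subjects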
# test context: human, in vivo
Record the value in ng/mL, omitting the unit from your answer.

Query: Item COc1ccc2c(c1)[C@]13CCCC[C@@H]1[C@H](C2)N(C)CC3 has what recorded concentration at 7 day?
Reply: 0.439

Query: Item Cc1cc2nc3c(=O)[nH]c(=O)nc-3n(C[C@H](O)[C@H](O)[C@H](O)CO)c2cc1C has what recorded concentration at 7 day?
Reply: 40.8

Query: Item CN(C)C(=O)C(CCN1CCC(O)(c2ccc(Cl)cc2)CC1)(c1ccccc1)c1ccccc1 [Loperamide] has what recorded concentration at 7 day?
Reply: 0.0922

Query: Item O=C1O[C@H]([C@@H](O)CO)C(O)=C1O has what recorded concentration at 7 day?
Reply: 36.8

Query: Item CNC(=C[N+](=O)[O-])NCCSCc1ccc(CN(C)C)o1 has what recorded concentration at 7 day?
Reply: 0.0757

Query: Item CN(C)CCOC(c1ccccc1)c1ccccc1 [Diphenhydramine] has what recorded concentration at 7 day?
Reply: 0

Query: Item NC(N)=Nc1nc(CSCCC(N)=NS(N)(=O)=O)cs1 has what recorded concentration at 7 day?
Reply: 0

---

# experiment notes: clinical
# test context: human, in vivo, 6 day
Answer each item with its documented Subject C, Urine Results.
Record the value in ng/m, omitting the unit from your answer.

Query: Item Cc1cc2nc3c(=O)[nH]c(=O)nc-3n(C[C@H](O)[C@H](O)[C@H](O)CO)c2cc1C [Riboflavin] has what recorded Subject C, Urine Results?
Reply: 1680

Query: Item O=C1O[C@H]([C@@H](O)CO)C(O)=C1O [Ascorbic Acid] has what recorded Subject C, Urine Results?
Reply: 1812

Query: Item CNC(=C[N+](=O)[O-])NCCSCc1ccc(CN(C)C)o1 [Ranitidine] has what recorded Subject C, Urine Results?
Reply: 39.6

Query: Item CN(C)CCOC(c1ccccc1)c1ccccc1 [Diphenhydramine] has what recorded Subject C, Urine Results?
Reply: 618000

Query: Item NC(N)=Nc1nc(CSCCC(N)=NS(N)(=O)=O)cs1 [Famotidine] has what recorded Subject C, Urine Results?
Reply: 165

---

# experiment notes: clinical
# test context: human, in vivo, Subject B, Urine Results
readout type: concentration at 5 day (ng/mL)
Record the value in ng/mL, omitting the unit from your answer.

Query: Item CN(C)CCOC(c1ccccc1)c1ccccc1 [Diphenhydramine] has what recorded concentration at 5 day?
Reply: 0

---

Answer each item with its documented Subject C, Urine Results.
# experiment notes: clinical
# test context: human, in vivo, 4 day
# Source text: All other markers were obtained from commercial sources. Urine and saliva were collected prior to each day's dosing of marker confirming the presence or absence of markers before the experiment started. […] The presence of all 7 markers at day 8 would confirm that all markers were ingested in the previous 7 day one week period. Healthy volunteers with no recent exposure to the markers who were not currently taking prescribed medications, OTC medications or vitamins and supplements were chosen. […]
Record the value in ng/m, omitting the unit from your answer.

Query: Item CNC(=C[N+](=O)[O-])NCCSCc1ccc(CN(C)C)o1 has what recorded Subject C, Urine Results?
Reply: 68.3

Query: Item Cc1cc2nc3c(=O)[nH]c(=O)nc-3n(C[C@H](O)[C@H](O)[C@H](O)CO)c2cc1C has what recorded Subject C, Urine Results?
Reply: 3150

Query: Item O=C1O[C@H]([C@@H](O)CO)C(O)=C1O has what recorded Subject C, Urine Results?
Reply: 1892

Query: Item NC(N)=Nc1nc(CSCCC(N)=NS(N)(=O)=O)cs1 has what recorded Subject C, Urine Results?
Reply: 0

Query: Item CN(C)CCOC(c1ccccc1)c1ccccc1 [Diphenhydramine] has what recorded Subject C, Urine Results?
Reply: 0

---

Answer each item with its documented concentration at 8 day.
# experiment notes: Multiple Marker Experiment 1: urine samples, adherent with all markers, marker concentration by LC-MS/MS
# test context: human, in vivo, Subject A, Urine Results, Day 8 sample; Experiment #1, adherent with all markers; each marker dosed once
Record the value in ng/mL, omitting the unit from your answer.

Query: Item CN(C)C(=O)C(CCN1CCC(O)(c2ccc(Cl)cc2)CC1)(c1ccccc1)c1ccccc1 [Loperamide] has what recorded concentration at 8 day?
Reply: 0.022

Query: Item COc1ccc2c(c1)[C@]13CCCC[C@@H]1[C@H](C2)N(C)CC3 has what recorded concentration at 8 day?
Reply: 0.341

---

# experiment notes: clinical
# test context: human, in vivo, Subject C, Urine Results
readout type: concentration at 1 day (ng/mL)
Record the value in ng/mL, omitting the unit from your answer.

Query: Item CN(C)CCOC(c1ccccc1)c1ccccc1 [Diphenhydramine] has what recorded concentration at 1 day?
Reply: 0

Query: Item O=C1O[C@H]([C@@H](O)CO)C(O)=C1O has what recorded concentration at 1 day?
Reply: 1870

Query: Item NC(N)=Nc1nc(CSCCC(N)=NS(N)(=O)=O)cs1 has what recorded concentration at 1 day?
Reply: 0

---

Answer each item with its documented concentration at 4 day.
# experiment notes: Multiple Marker Experiment 1: saliva samples, marker concentration by LC-MS/MS;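 note: mean across four subjects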
# test context: human, in vivo
Please format your answer as a value with the unit trailing.

Query: Item CN(C)C(=O)C(CCN1CCC(O)(c2ccc(Cl)cc2)CC1)(c1ccccc1)c1ccccc1 [Loperamide] has what recorded concentration at 4 day?
Reply: 0.18 ng/mL

Query: Item NC(N)=Nc1nc(CSCCC(N)=NS(N)(=O)=O)cs1 [Famotidine] has what recorded concentration at 4 day?
Reply: 0 ng/mL

Query: Item O=C1O[C@H]([C@@H](O)CO)C(O)=C1O [Ascorbic Acid] has what recorded concentration at 4 day?
Reply: 33.3 ng/mL

Query: Item COc1ccc2c(c1)[C@]13CCCC[C@@H]1[C@H](C2)N(C)CC3 [DXM, Dextromethorphan] has what recorded concentration at 4 day?
Reply: 8.4 ng/mL

Query: Item Cc1cc2nc3c(=O)[nH]c(=O)nc-3n(C[C@H](O)[C@H](O)[C@H](O)CO)c2cc1C [Riboflavin] has what recorded concentration at 4 day?
Reply: 45.5 ng/mL

Query: Item CNC(=C[N+](=O)[O-])NCCSCc1ccc(CN(C)C)o1 [Ranitidine] has what recorded concentration at 4 day?
Reply: 0.562 ng/mL

Query: Item CN(C)CCOC(c1ccccc1)c1ccccc1 [Diphenhydramine] has what recorded concentration at 4 day?
Reply: 0 ng/mL
